Biological target: Androgen receptor (Homo sapiens) (UniProt P10275)
Sequence (P10275 whole entry, looked up): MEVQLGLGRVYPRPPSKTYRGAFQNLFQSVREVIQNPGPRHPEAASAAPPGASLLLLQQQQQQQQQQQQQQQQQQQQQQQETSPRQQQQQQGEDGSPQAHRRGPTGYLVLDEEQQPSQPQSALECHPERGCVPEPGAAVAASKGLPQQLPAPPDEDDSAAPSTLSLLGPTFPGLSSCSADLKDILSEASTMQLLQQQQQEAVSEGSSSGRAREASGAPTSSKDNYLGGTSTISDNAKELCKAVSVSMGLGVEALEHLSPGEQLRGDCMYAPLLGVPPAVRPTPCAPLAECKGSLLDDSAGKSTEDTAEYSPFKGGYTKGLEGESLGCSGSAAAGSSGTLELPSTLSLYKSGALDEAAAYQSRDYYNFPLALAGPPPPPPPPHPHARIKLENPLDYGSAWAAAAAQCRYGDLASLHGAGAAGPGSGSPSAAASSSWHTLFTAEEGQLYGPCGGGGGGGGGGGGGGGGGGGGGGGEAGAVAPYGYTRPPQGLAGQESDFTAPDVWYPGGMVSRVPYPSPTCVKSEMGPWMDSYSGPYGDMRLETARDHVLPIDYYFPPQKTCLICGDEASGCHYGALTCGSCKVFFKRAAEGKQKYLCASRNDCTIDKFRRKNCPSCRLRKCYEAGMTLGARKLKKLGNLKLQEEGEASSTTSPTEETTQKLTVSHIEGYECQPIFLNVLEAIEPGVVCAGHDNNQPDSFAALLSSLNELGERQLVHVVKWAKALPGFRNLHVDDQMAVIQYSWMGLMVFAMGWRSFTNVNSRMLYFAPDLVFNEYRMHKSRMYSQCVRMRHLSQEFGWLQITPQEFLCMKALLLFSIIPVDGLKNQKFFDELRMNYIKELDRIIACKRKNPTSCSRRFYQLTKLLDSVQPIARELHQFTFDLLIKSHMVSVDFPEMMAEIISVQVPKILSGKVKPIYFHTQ
Experiment: qHTS assay to identify small molecule antagonists of the androgen receptor (AR) signaling pathway using the MDA cell line in the presence of 0.5 nM R1881 (AID 1259243); also: nearly all actives have a fitted effect of over 50% in size
Conditions: MDA-kb2 MMTV-luciferase, R1881 0.5 nM, 16 h; series mostly up to 92.4 µM
Records with an inconclusive call do not appear. Active and inactive are the calls of the source. Calls follow the shape of the dose curve; as a rule, active = well fitted inhibition curve with a large enough effect in the repeat runs; inconclusive = weak or mixed curves; inactive = no such curve, though single readings can be large or run the other way.
Classes used: 1 for active, -1 for inactive

| compound | study target | answer label |
| --- | --- | --- |
| CCCCCCCCCCC=O | Androgen receptor (Homo sapiens) (UniProt P10275) | -1 |
| O=C1c2c(O)ccc(Nc3ccc(CCO)cc3)c2C(=O)c2c([N+](=O)[O-])ccc(O)c21 | Androgen receptor (Homo sapiens) (UniProt P10275) | 1 |
| N#CSc1ccc(N)c([N+](=O)[O-])c1 | Androgen receptor (Homo sapiens) (UniProt P10275) | 1 |
| Oc1ccc2c(c1)-c1ccccc1C2 | Androgen receptor (Homo sapiens) (UniProt P10275) | 1 |
| CCCCCCCCCOC(=O)c1ccc(O)cc1 | Androgen receptor (Homo sapiens) (UniProt P10275) | 1 |
| Cc1cc(O)c2ccccc2c1O | Androgen receptor (Homo sapiens) (UniProt P10275) | 1 |
| CC(C)=CCOc1ccc(/C=C/C(=O)c2ccc(OCC=C(C)C)cc2OCC(=O)O)cc1 | Androgen receptor (Homo sapiens) (UniProt P10275) | -1 |
| COc1ccc(C(=O)/C(Br)=C\C(=O)O)cc1 | Androgen receptor (Homo sapiens) (UniProt P10275) | 1 |
| CCCCN(CCCC)c1ccc(C(=O)c2ccccc2C(=O)O)c(O)c1 | Androgen receptor (Homo sapiens) (UniProt P10275) | -1 |
| Oc1cc2ccccc2c2ccccc12 | Androgen receptor (Homo sapiens) (UniProt P10275) | 1 |
| OCc1c[nH]c2ccccc12 | Androgen receptor (Homo sapiens) (UniProt P10275) | 1 |
| Oc1ccc(C2(c3ccc(O)cc3)CC3CC2C2CCCC32)cc1 (configuration not stated) | Androgen receptor (Homo sapiens) (UniProt P10275) | 1 |
| Cc1cc(O)c(Cl)c(C)c1Cl | Androgen receptor (Homo sapiens) (UniProt P10275) | -1 |
| O=S1(=O)CC(Cl)(Cl)C(Cl)(Cl)C1 | Androgen receptor (Homo sapiens) (UniProt P10275) | 1 |
| COc1cc(-c2nc(NC(=O)c3cc4cc(C)cc(C)c4n3CC(=O)O)sc2CCC2CCCCC2)c(OC)cc1Cl | Androgen receptor (Homo sapiens) (UniProt P10275) | 1 |
| [Cl][Bi]([Cl])([c]1ccccc1)([c]1ccccc1)[c]1ccccc1 | Androgen receptor (Homo sapiens) (UniProt P10275) | 1 |
| C[C@@H]1C[C@H]2[C@@H]3CCC4=CC(=O)C=C[C@]4(C)[C@@]3(Cl)[C@@H](O)C[C@]2(C)[C@@]1(OC(=O)c1ccco1)C(=O)CCl | Androgen receptor (Homo sapiens) (UniProt P10275) | -1 |
| Nc1nc2ccccc2n1Cc1ccc(F)cc1 | Androgen receptor (Homo sapiens) (UniProt P10275) | 1 |
| CC[C@@]1(O)C(=O)OCc2c1cc1n(c2=O)Cc2c-1nc1ccccc1c2/C=N/OC(C)(C)C | Androgen receptor (Homo sapiens) (UniProt P10275) | 1 |
| Nc1ccc2c3c(cccc13)-c1ccccc1-2 | Androgen receptor (Homo sapiens) (UniProt P10275) | -1 |
| ON=C1CCCC1 | Androgen receptor (Homo sapiens) (UniProt P10275) | 1 |
| Cc1ccc(O)c2ncccc12 | Androgen receptor (Homo sapiens) (UniProt P10275) | 1 |

Provenance of the data: PubChem BioAssay (Tox21)
